Measurement Protocol: Toxicity in zebrafish embryo assessed as survival at 0.1 uM preincubated for 1 hr measured after 24 hrs (reference value: 86.2 +/- 8.5%)
Design: species or system Danio rerio
Study Conditions: zebrafish embryos
Parameter survival at 24 h, 0.1 µM: see the listing below.
Measured Metric: survival at 24 h, 0.1 µM

| Smi | Endpoint Result |
| --- | --- |
| COc1cnc2c(c1)C(=O)c1c-2n(CCCn2ccnc2)c(=O)c2cc(Cl)ccc12 | 55.6% |
| COc1cnc2c(c1)C(=O)c1c-2n(CCCn2ccnc2)c(=O)c2cc([N+](=O)[O-])ccc12 | 5.6% |
| COc1cnc2c(c1)C(=O)c1c-2n(CCCn2ccnc2)c(=O)c2cc(F)ccc12 | 86.2% |

====

Measurement Protocol: Toxicity in zebrafish embryo assessed as survival at 0.01 uM preincubated for 1 hr measured after 96 hrs (reference value: 82.5 +/- 8.4%)
Set-up: species or system Danio rerio
Study Conditions: zebrafish embryos
Measured Metric: survival at 96 h, 0.01 µM (%)

| Smi | Endpoint Result |
| --- | --- |
| COc1cnc2c(c1)C(=O)c1c-2n(CCCn2ccnc2)c(=O)c2cc([N+](=O)[O-])ccc12 | 45 |
| COc1cnc2c(c1)C(=O)c1c-2n(CCCn2ccnc2)c(=O)c2cc(Cl)ccc12 | 61.8 |
| COc1cnc2c(c1)C(=O)c1c-2n(CCCn2ccnc2)c(=O)c2cc(F)ccc12 | 87.5 |

====

Target Under Test: UniProtKB O95551
Sequence (O95551 whole entry): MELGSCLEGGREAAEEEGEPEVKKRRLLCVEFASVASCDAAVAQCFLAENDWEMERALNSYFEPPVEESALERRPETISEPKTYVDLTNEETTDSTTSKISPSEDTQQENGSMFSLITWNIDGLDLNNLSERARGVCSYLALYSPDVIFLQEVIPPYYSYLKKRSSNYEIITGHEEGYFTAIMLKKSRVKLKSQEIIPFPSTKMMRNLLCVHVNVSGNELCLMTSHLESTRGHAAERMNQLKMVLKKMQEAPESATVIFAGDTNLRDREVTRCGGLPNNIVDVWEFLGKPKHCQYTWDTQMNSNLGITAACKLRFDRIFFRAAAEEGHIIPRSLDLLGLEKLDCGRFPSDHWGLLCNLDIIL
Measurement Protocol: Inhibition of recombinant human TDP2 using 3'-labeled alpha-[32P]-cordycepin as substrate after 15 mins

| Smi | IC50 |
| --- | --- |
| CCNCCCn1c2c(c3ccc(Cl)cc3c1=O)C(=O)c1cc(OC)cnc1-2 | > 111 µM |

====

Catalogue of survival at 72 h, 0.1 µM values
Measurement Protocol: Toxicity in zebrafish embryo assessed as survival at 0.1 uM preincubated for 1 hr measured after 72 hrs (reference value: 82.5 +/- 8.4%)
Parameters: species or system Danio rerio
Study Conditions: zebrafish embryos

| Smi | survival at 72 h, 0.1 µM, % |
| --- | --- |
| COc1cnc2c(c1)C(=O)c1c-2n(CCCn2ccnc2)c(=O)c2cc(F)ccc12 | 45.6 |
| COc1cnc2c(c1)C(=O)c1c-2n(CCCn2ccnc2)c(=O)c2cc([N+](=O)[O-])ccc12 | 0 |
| COc1cnc2c(c1)C(=O)c1c-2n(CCCn2ccnc2)c(=O)c2cc(Cl)ccc12 | 51.9 |

====

Measurement Protocol: Toxicity in zebrafish embryo assessed as survival at 1 uM preincubated for 1 hr measured after 120 hrs (reference value: 82.5 +/- 8.4%)
Set-up: species or system Danio rerio
Study Conditions: zebrafish embryos
Quick reference: survival at 120 h, 1 µM of the listed items.
Measured Metric: survival at 120 h, 1 µM (%)

| Smi | Units | Endpoint Result |
| --- | --- | --- |
| COc1cnc2c(c1)C(=O)c1c-2n(CCCn2ccnc2)c(=O)c2cc(F)ccc12 | % | 0 |
| COc1cnc2c(c1)C(=O)c1c-2n(CCCn2ccnc2)c(=O)c2cc(Cl)ccc12 | % | 1.2 |
| COc1cnc2c(c1)C(=O)c1c-2n(CCCn2ccnc2)c(=O)c2cc([N+](=O)[O-])ccc12 | % | 0 |

====

System: MCF7
Measurement Protocol: Antiproliferative activity against human MCF7 cells assessed as growth inhibition
Type: functional

| Compound | Censoring Sign | GI50 (nM) |
| --- | --- | --- |
| O=C1c2ccccc2-c2c1c1ccc(Cl)cc1c(=O)n2CCCn1ccnc1 | = | 31 |
| CNCCCn1c2c(c3ccc(F)cc3c1=O)C(=O)c1cc(OC)cnc1-2 | = | 34 |
| COc1cnc2c(c1)C(=O)c1c-2n(CCCNC2=NCCS2)c(=O)c2cc(F)ccc12 | = | 33 |
| COc1cnc2c(c1)C(=O)c1c-2n(CCCNC2=NCCS2)c(=O)c2cc(Cl)ccc12 | = | 36 |
| COc1cnc2c(c1)C(=O)c1c-2n(CCCN2CCNCC2)c(=O)c2cc(F)ccc12 | = | 34 |
| COc1cnc2c(c1)C(=O)c1c-2n(CCCN2CCC(O)CC2)c(=O)c2cc(Cl)ccc12 | = | 42 |
| CNCCCn1c2c(c3ccc(Cl)cc3c1=O)C(=O)c1cc(OC)cnc1-2 | = | 46 |
| COc1cnc2c(c1)C(=O)c1c-2n(CCCn2ccnc2)c(=O)c2cc(Cl)ccc12 | < | 10 |
| COc1cnc2c(c1)C(=O)c1c-2n(CCCNC(C)C)c(=O)c2cc(F)ccc12 | = | 31 |
| COc1cnc2c(c1)C(=O)c1c-2n(CCCNC(C)C)c(=O)c2cc(Cl)ccc12 | = | 37 |
| COc1cnc2c(c1)C(=O)c1c-2n(CCCN2CCOCC2)c(=O)c2cc(F)ccc12 | = | 44 |
| COc1cnc2c(c1)C(=O)c1c-2n(CCCN2CCCC2)c(=O)c2cc(F)ccc12 | = | 48 |
| CCNCCCn1c2c(c3ccc(Cl)cc3c1=O)C(=O)c1cc(OC)cnc1-2 | < | 10 |
| COc1cnc2c(c1)C(=O)c1c-2n(CCCn2ccnc2)c(=O)c2cc(F)ccc12 | < | 10 |
| CC[C@@]1(O)C(=O)OCc2c1cc1n(c2=O)Cc2cc3ccccc3nc2-1 [CAMPTOTHECIN] | = | 13 |
| COc1cnc2c(c1)C(=O)c1c-2n(CCCN2CCNCC2)c(=O)c2cc(Cl)ccc12 | = | 89 |
| COc1cnc2c(c1)C(=O)c1c-2n(CCCN2CCC(O)CC2)c(=O)c2cc(F)ccc12 | = | 31 |
| COc1cnc2c(c1)C(=O)c1c-2n(CCCN2CCOCC2)c(=O)c2cc(Cl)ccc12 | = | 90 |
| CCNCCCn1c2c(c3ccc(F)cc3c1=O)C(=O)c1cc(OC)cnc1-2 | = | 42 |

====

Target Under Test: DNA topoisomerase 1 (Homo sapiens)
Measurement Protocol: Inhibition of recombinant Top1 (unknown origin) assessed as Top 1 mediated DNA cleavage using 3'-[32P]-labeled 117 bp DNA as substrate at 0.1 to 100 uM after 20 mins by PAGE analysis
The source made the active and inactive calls. The calls are words filed in the database; no cut-off is given here.
Classes used: class 1 (active), class 0 (inactive)

| Smi | Category |
| --- | --- |
| COc1cnc2c(c1)C(=O)c1c-2n(CCCN2CCC(O)CC2)c(=O)c2cc(Cl)ccc12 | class 1 |
| O=C1c2ccccc2-c2c1c1ccc([N+](=O)[O-])cc1c(=O)n2CCCn1ccnc1 | class 1 |
| COc1cnc2c(c1)C(=O)c1c-2n(CCCNC2=NCCS2)c(=O)c2cc(F)ccc12 | class 1 |
| COc1cnc2c(c1)C(=O)c1c-2n(CCCN2CCNCC2)c(=O)c2cc(F)ccc12 | class 0 |
| COc1cnc2c(c1)C(=O)c1c-2n(CCCn2ccnc2)c(=O)c2cc(Cl)ccc12 | class 1 |

====

System: DU-145
Measurement Protocol: Antiproliferative activity against human DU145 cells assessed as growth inhibition
Assay type: functional
Here, each record is paired with measured GI50 data.
Measured Metric: GI50 (nM)

| Smi | Censoring Sign | Endpoint Result |
| --- | --- | --- |
| COc1cnc2c(c1)C(=O)c1c-2n(CCCN2CCCC2)c(=O)c2cc(F)ccc12 | = | 211 |
| COc1cnc2c(c1)C(=O)c1c-2n(CCCNC(C)C)c(=O)c2cc(F)ccc12 | = | 210 |
| COc1cnc2c(c1)C(=O)c1c-2n(CCCN2CCOCC2)c(=O)c2cc(F)ccc12 | = | 341 |
| CNCCCn1c2c(c3ccc(F)cc3c1=O)C(=O)c1cc(OC)cnc1-2 | = | 202 |
| COc1cnc2c(c1)C(=O)c1c-2n(CCCNC(C)C)c(=O)c2cc(Cl)ccc12 | = | 173 |
| COc1cnc2c(c1)C(=O)c1c-2n(CCCN2CCC(O)CC2)c(=O)c2cc(F)ccc12 | = | 174 |
| CCNCCCn1c2c(c3ccc(Cl)cc3c1=O)C(=O)c1cc(OC)cnc1-2 | = | 208 |
| COc1cnc2c(c1)C(=O)c1c-2n(CCCNC2=NCCS2)c(=O)c2cc(Cl)ccc12 | = | 92 |
| COc1cnc2c(c1)C(=O)c1c-2n(CCCN2CCNCC2)c(=O)c2cc(F)ccc12 | = | 62 |
| COc1cnc2c(c1)C(=O)c1c-2n(CCCN2CCNCC2)c(=O)c2cc(Cl)ccc12 | = | 242 |
| COc1cnc2c(c1)C(=O)c1c-2n(CCCN2CCOCC2)c(=O)c2cc(Cl)ccc12 | = | 410 |
| COc1cnc2c(c1)C(=O)c1c-2n(CCCn2ccnc2)c(=O)c2cc(Cl)ccc12 | = | 43 |
| CCNCCCn1c2c(c3ccc(F)cc3c1=O)C(=O)c1cc(OC)cnc1-2 | = | 215 |
| COc1cnc2c(c1)C(=O)c1c-2n(CCCNC2=NCCS2)c(=O)c2cc(F)ccc12 | = | 144 |
| CNCCCn1c2c(c3ccc(Cl)cc3c1=O)C(=O)c1cc(OC)cnc1-2 | = | 331 |
| COc1cnc2c(c1)C(=O)c1c-2n(CCCn2ccnc2)c(=O)c2cc(F)ccc12 | < | 10 |
| COc1cnc2c(c1)C(=O)c1c-2n(CCCN2CCC(O)CC2)c(=O)c2cc(Cl)ccc12 | = | 270 |
